Readings of pIC50 for the listed molecules
Subject Of Test: recombinant human His-ATG7 enzyme (Homo sapiens (Human), UniProt O95352)
Sequence (O95352 whole entry): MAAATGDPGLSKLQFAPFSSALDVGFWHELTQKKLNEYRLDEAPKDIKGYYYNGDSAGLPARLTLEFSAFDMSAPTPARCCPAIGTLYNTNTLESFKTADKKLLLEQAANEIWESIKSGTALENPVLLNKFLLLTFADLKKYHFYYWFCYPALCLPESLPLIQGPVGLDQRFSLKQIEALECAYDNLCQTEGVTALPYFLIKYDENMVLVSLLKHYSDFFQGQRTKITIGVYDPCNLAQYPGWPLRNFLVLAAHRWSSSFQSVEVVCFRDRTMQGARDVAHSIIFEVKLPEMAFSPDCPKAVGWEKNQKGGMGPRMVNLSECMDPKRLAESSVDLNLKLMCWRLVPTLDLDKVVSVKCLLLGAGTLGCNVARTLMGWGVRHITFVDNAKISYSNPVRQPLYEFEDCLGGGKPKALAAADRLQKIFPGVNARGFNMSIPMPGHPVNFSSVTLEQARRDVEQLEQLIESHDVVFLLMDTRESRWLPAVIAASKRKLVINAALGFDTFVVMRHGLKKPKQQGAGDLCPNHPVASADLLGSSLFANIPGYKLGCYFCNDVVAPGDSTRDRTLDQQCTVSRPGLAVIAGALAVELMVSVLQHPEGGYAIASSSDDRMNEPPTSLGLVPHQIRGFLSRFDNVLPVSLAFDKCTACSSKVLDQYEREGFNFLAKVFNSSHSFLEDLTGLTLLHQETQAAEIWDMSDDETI
Protocol Text: ATG7 Enzyme Assay (HTRF/FRET, ATG3-GST and Flag-Gabarap)
pIC50: −log10 of the molar value.

Answered examples (2):
CC(C)(O)c1nn([C@@H]2O[C@H](COS(N)(=O)=O)[C@@H](O)[C@H]2O)c2ncnc(N)c12 [Compound I-24] ... < 6.30
Nc1ncnc2c1c(SCc1cc3ccccc3s1)nn2[C@H]1C[C@H](O)[C@@H](COS(N)(=O)=O)O1 [Compound I-204] ... 6.30 to 7.00

Need pIC50 of CC(C)Sc1nn([C@H]2C[C@H](O)[C@H](COS(N)(=O)=O)O2)c2ncnc(N)c12 [Compound I-220] , thanks.
7.00 to 7.30

I would be grateful if you could share the reported pIC50 for Nc1ncnc2c1c(SCc1ccnnc1)nn2[C@@H]1O[C@H](COS(N)(=O)=O)[C@@H](O)[C@@H]1F [Compound I-128] .
7.00 to 7.30

###

Subject Of Test: recombinant human His-ATG7 enzyme (Homo sapiens (Human), UniProt O95352)
Protocol Text: ATG7 Enzyme Assay (HTRF/FRET, ATG3-GST and Flag-Gabarap)
Assay type: biochemical
Test Parameters: Concentration 0.111 μM; read-out: Percent Inhibition
Protocol: Example 97: ATG7 Enzyme Assay The total volume of the ATG7 enzymatic assay is 50 μL and contains 50 mM HEPES Hemisodium (pH 7.5), 0.05% BSA, 0.01% Tween-20, 25 mM NaCl, 5 mM MgCl2, 10 μM ATP, 250 μM GSH, 5 nM ATG3-GST, 5 nM Flag-Gabarap, 100 μM TCEP and 0.15 nM recombinant human His-ATG7 enzyme. […] After incubation for 2 hours at 24° C., quantification of FRET is performed on the Pherostar™ (BMG Labtech). […]
Parameter: inhibition at 0.111 µM (%)

Recorded inhibition at 0.111 µM, per entry:
CCC(C)Sc1nn([C@@H]2O[C@H](COS(N)(=O)=O)[C@@H](O)[C@@H]2F)c2ncnc(N)c12 (single isomer, unassigned) [Compound I-136b] ... 61
Cc1csc(Sc2nn([C@H]3C[C@H](O)[C@@H](COS(N)(=O)=O)O3)c3ncnc(N)c23)n1 ... 44

P. CCSc1nn([C@H]2C[C@H](O)[C@H](COS(N)(=O)=O)O2)c2ncnc(N)c12
Q. Cc1cccc(Sc2nn([C@@H]3O[C@H](COS(N)(=O)=O)[C@@H](O)[C@H]3O)c3ncnc(N)c23)c1
// max by inhibition at 0.111 µM over [ P , Q ] Pick one; state its label.
Q
(Q: 86%, P: 46%)

P. Nc1ncnc2c1c(SCC(F)F)nn2[C@H]1C[C@H](O)[C@H](COS(N)(=O)=O)O1
Q. Cc1ccnc(Sc2nn([C@@H]3O[C@H](COS(N)(=O)=O)[C@@H](O)[C@@H]3F)c3ncnc(N)c23)c1
R. NC(=O)CSc1nn([C@H]2C[C@H](O)[C@@H](COS(N)(=O)=O)O2)c2ncnc(N)c12
Order each entry by recorded inhibition at 0.111 µM, climbing from the minimum. Your answer should be the labels, listed in the requested order.
R, P, Q
(R: 29%, P: 48%, Q: 90%)

I. Nc1ncnc2c1c(SC(F)F)nn2[C@@H]1O[C@H](COS(N)(=O)=O)[C@@H](O)[C@@H]1F
II. N#CCSc1nn([C@H]2C[C@H](O)[C@@H](COS(N)(=O)=O)O2)c2ncnc(N)c12
Select one. Lower inhibition at 0.111 µM: I or II Pick one; state its label.
II

P. Nc1ncnc2c1c(Sc1ccc(C(F)(F)F)cc1)nn2[C@@H]1O[C@H](COS(N)(=O)=O)[C@@H](O)[C@@H]1F
Q. Cc1ccc(Sc2nn([C@@H]3O[C@H](COS(N)(=O)=O)[C@@H](O)[C@H]3O)c3ncnc(N)c23)cc1
Exercise: compare P and Q ; which one has the greater inhibition at 0.111 µM? Please reply using the label of the selected record.
Q

I. Nc1ncnc2c1c(SC1CC1)nn2[C@H]1C[C@H](O)[C@@H](COS(N)(=O)=O)O1
II. Cn1cncc1Sc1nn([C@@H]2O[C@H](COS(N)(=O)=O)[C@@H](O)[C@@H]2F)c2ncnc(N)c12
Higher inhibition at 0.111 µM between I and II ? Your answer should be the label of the entry you select.
I
